Numbers sourced from the supplement of paper PMC12338614.

B1: library; numbered along this chain (parent)
chain: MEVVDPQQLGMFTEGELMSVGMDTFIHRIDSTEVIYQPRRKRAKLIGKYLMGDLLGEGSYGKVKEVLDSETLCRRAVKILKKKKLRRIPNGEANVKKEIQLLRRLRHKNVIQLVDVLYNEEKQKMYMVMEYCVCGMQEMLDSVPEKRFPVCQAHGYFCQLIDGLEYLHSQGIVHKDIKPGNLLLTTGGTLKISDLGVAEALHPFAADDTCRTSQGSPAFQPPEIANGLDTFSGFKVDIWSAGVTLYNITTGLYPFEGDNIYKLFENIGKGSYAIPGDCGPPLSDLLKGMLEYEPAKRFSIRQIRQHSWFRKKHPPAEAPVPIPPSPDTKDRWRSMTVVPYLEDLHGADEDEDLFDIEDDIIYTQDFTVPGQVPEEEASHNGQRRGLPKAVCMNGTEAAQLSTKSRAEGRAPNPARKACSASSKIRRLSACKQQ

# Variants of: B1
# assay_remarks: STK11 functional score (HeLa growth suppression), rescaled enrichment; synonymous median = 1, nonsense median = 0 (normalised score)
# condition_info: with HeLa; variant type: missense
property_name: STK11 functional score
Form field (numeric): enter value without unit.

Example entries and their recorded answers appear below.
* Q302A | 1.45
* G227Y | 1.46
* V368I | 1.53
* D53M | 0.483
* G187V | 0.795

// returns reported STK11 functional score for input V77W 0.824

// returns reported STK11 functional score for input R426V 1.62

// returns reported STK11 functional score for input M129D 1.37

// returns reported STK11 functional score for input I79S 0.761

// returns reported STK11 functional score for input E16K 0.291

// returns reported STK11 functional score for input Y253W 0.66

// returns reported STK11 functional score for input L285E -0.0678

// returns reported STK11 functional score for input D176G -0.169

// returns reported STK11 functional score for input P89E 1.68

// returns reported STK11 functional score for input L282S 0.442
